Reference for the values: ChEMBL document CHEMBL1833836

// reported IC50 for each item listed
System: Cryptosporidium parvum
assay_text: Antimicrobial activity against Cryptosporidium parvum infected in HCT8 cells assessed as parasite count after 72 to 120 hrs
Type: functional, organism-based
test_settings: HCT-8
Report only the number, with the unit µM understood.

{"structure_smiles": "CCCN(CCC)c1c([N+](=O)[O-])cc(S(N)(=O)=O)cc1[N+](=O)[O-]", "endpoint": "IC50", "unit_of_measurement": "µM", "test_result": 0.8}

What IC50 value was documented for this compound, `CCCN(CCC)c1c([N+](=O)[O-])cc(C(F)(F)F)cc1[N+](=O)[O-]` ? 0.75

* * *

Test system: Plasmodium falciparum
assay_text: Antimalarial activity against Plasmodium falciparum 3D7 infected in O-positive human erythrocytes assessed as inhibition of parasite lactate dehydrogenase after 72 hrs by pLDH method
Format: functional, organism-based
test_settings: 3D7, 72 h
# label = bin(measured IC50), where bins are lower level = under 40 µM, middle level = from 40 µM up to 80 µM, upper level = 80 µM and over

# example entries with known answers
{"compound": "CCOP(=O)(Oc1ccc(C(F)(F)F)cc1)N(CC)CC (configuration not stated)", "group": "middle level"}
{"compound": "CCOP(=O)(Oc1ccc(C(F)(F)F)cc1)N1CCCC1 (configuration not stated)", "group": "middle level"}
{"compound": "CCOP(=O)(NC(C)C)Oc1cc(C)ccc1[N+](=O)[O-] (configuration not stated)", "group": "upper level"}
{"compound": "CCCCNP(=O)(OCC)Oc1ccc(C)cc1[N+](=O)[O-] (configuration not stated)", "group": "lower level"}
{"compound": "CCCCCNP(=S)(OCC)Oc1ccc(C(F)(F)F)cc1 (configuration not stated)", "group": "lower level"}
{"compound": "CCOP(=O)(NC(C)C)Oc1ccccc1 (configuration not stated)", "group": "upper level"}

Field: class (IC50) — entry: CCOP(=O)(Oc1ccc(C(F)(F)F)cc1)N1CCCCC1 (configuration not stated) upper level

Next entry: CCOP(=O)(NC(C)C)Oc1cccc(C(F)(F)F)c1 (configuration not stated) middle level

Next entry: CCOP(=O)(NC1CCCCC1)Oc1ccc(C(F)(F)F)cc1 (configuration not stated) middle level

Next entry: CCOP(=O)(NCC(C)C)Oc1ccc(C)cc1[N+](=O)[O-] (configuration not stated) middle level

Next entry: CCCCNP(=O)(OCC)Oc1ccc(C(F)(F)F)cc1 (configuration not stated) lower level

Next entry: CCOP(=O)(NC(C)C)Oc1ccccc1C(F)(F)F (configuration not stated) upper level

Next entry: CCOP(=O)(NC(C)C)Oc1ccc2ccccc2c1 (configuration not stated) middle level

Next entry: CCOP(=O)(NC(C)C)Oc1ccc2ccccc2c1[N+](=O)[O-] (configuration not stated) upper level

Next entry: CCOP(=O)(NCC(C)C)Oc1cc(C)ccc1[N+](=O)[O-] (configuration not stated) upper level

Next entry: CCOP(=S)(NC1CCCC1)Oc1ccc([N+](=O)[O-])cc1C (configuration not stated) lower level

Next entry: CCOP(=O)(NC(C)C)Oc1ccc([N+](=O)[O-])cc1C (configuration not stated) upper level

Next entry: CCCCCNP(=S)(OCC)Oc1ccc([N+](=O)[O-])cc1C (configuration not stated) lower level

Next entry: CCCNP(=O)(OCC)Oc1cc(C)ccc1[N+](=O)[O-] (configuration not stated) upper level

Next entry: CCOP(=O)(NC(C)C)Oc1ccc(C)cc1OC (configuration not stated) upper level

Next entry: CCOP(=O)(NC1CCC1)Oc1ccc(C(F)(F)F)cc1 (configuration not stated) middle level

Next entry: CCOP(=O)(Nc1ccc(C)cc1Cl)Oc1ccc(C)cc1Cl (configuration not stated) upper level

Next entry: COP(=S)(NC(C)C)Oc1ccc(C)cc1[N+](=O)[O-] (configuration not stated) lower level

Next entry: CCOP(=O)(NC(C)C)Oc1ccc(C(F)(F)F)cc1 (configuration not stated) middle level

Next entry: CCOP(=O)(NC1CCCC1)Oc1ccc(Br)cc1 (configuration not stated) lower level

Next entry: CCOP(=O)(Oc1ccc(C(F)(F)F)cc1)N1CCOCC1 (configuration not stated) upper level

Next entry: CCOP(=O)(NC1CCCC1)Oc1ccc(C(F)(F)F)cc1 (configuration not stated) lower level

Next entry: CCCNP(=O)(OCC)Oc1ccc(C)cc1[N+](=O)[O-] (configuration not stated) upper level

Next entry: CCOP(=O)(NC(C)C)Oc1cccc([N+](=O)[O-])c1C (configuration not stated) upper level

Next entry: CCOP(=O)(NC1CCCC1)Oc1ccc(C)cc1[N+](=O)[O-] (configuration not stated) middle level

Next entry: CCCCCCCNP(=O)(OCC)Oc1ccc(C(F)(F)F)cc1 (configuration not stated) middle level

Next entry: CCOP(=O)(NC(C)C)Oc1ccc(C)cc1[N+](=O)[O-] (configuration not stated) upper level
